Source listed as PubChem BioAssay AID2060627.

System: 156681-154-R-J1-PDC complex spheroid viability
test: Anticancer human tumor 156681-154-R-J1-PDC patient-derived melanoma cell line growth inhibition [CLK]; active means viability on the fitted dose curve at most 10% of control; inactive means the rest
condition details: second compound 1 µM; first compound 0.01 µM
Labels: yes for active, no for inactive

compound="CCc1c2c(nc3ccc(O)cc13)-c1cc3c(c(=O)n1C2)COC(=O)[C@]3(O)CC + CNC(=O)c1ccc(Nc2nc(OC3CCCC3)c3c(-c4ccc5nc(C)oc5c4)c[nH]c3n2)c(OC)c1" label_value=no
compound="CCc1c2c(nc3ccc(O)cc13)-c1cc3c(c(=O)n1C2)COC(=O)[C@]3(O)CC + CN1CCN(c2cc(C(=O)Nc3cc4cc(-c5cnn(C)c5)ccc4cn3)ccn2)CC1" label_value=yes
compound="Cn1ncnc1[C@H]1c2n[nH]c(=O)c3cc(F)cc(c23)N[C@@H]1c1ccc(F)cc1 + CNC(=O)c1ccc(Nc2nc(OC3CCCC3)c3c(-c4ccc5nc(C)oc5c4)c[nH]c3n2)c(OC)c1" label_value=no
compound="Cn1ncnc1[C@H]1c2n[nH]c(=O)c3cc(F)cc(c23)N[C@@H]1c1ccc(F)cc1 + CN1CCN(c2cc(C(=O)Nc3cc4cc(-c5cnn(C)c5)ccc4cn3)ccn2)CC1" label_value=yes
compound="COc1c(OCCCN2CCOCC2)ccc2c3n(c(=NC(=O)c4cnc(N)nc4)nc12)CCN3 + CN1CCN(c2cc(C(=O)Nc3cc4cc(-c5cnn(C)c5)ccc4cn3)ccn2)CC1" label_value=yes

---

Test system: 156681-154-R-J1-PDC complex spheroid viability
test: Anticancer human tumor 156681-154-R-J1-PDC cell line growth inhibition [CLK];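 further: spheroids exposed to the agents for seven days; 100% = DMSO vehicle control viability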
condition details: second compound 0.316 µM; first compound 10 µM; hits give low values
The reader will find reported viability, T/C values listed item by item below.
measurement name: viability, T/C (%)

compound="O=c1[nH]cc(F)c(=O)[nH]1 + CNC(=O)c1ccc(Nc2nc(OC3CCCC3)c3c(-c4ccc5nc(C)oc5c4)c[nH]c3n2)c(OC)c1" measured=30.6
compound="COc1cccc2c1C(=O)c1c(O)c3c(c(O)c1C2=O)CC(O)(C(=O)CO)CC3OC1CC(N)C(O)C(C)O1 (stereo not drawn) + CN1CCN(c2cc(C(=O)Nc3cc4cc(-c5cnn(C)c5)ccc4cn3)ccn2)CC1" measured=1.51
compound="COC1C=CCC(C)C(C)S(=O)(=O)NC(=O)c2ccc3c(c2)N(CC2CCC21)CC1(CCCc2cc(Cl)ccc21)CO3 (stereo not drawn) + CN1CCN(c2cc(C(=O)Nc3cc4cc(-c5cnn(C)c5)ccc4cn3)ccn2)CC1" measured=1.8

---

Tested on: 156681-154-R-J1-PDC complex spheroid viability
test: Anticancer human tumor 156681-154-R-J1-PDC cell line growth inhibition [CLK];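 further: spheroids exposed to the agents for seven days; 100% = DMSO vehicle control viability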
condition details: second compound 1 µM; first compound 0.0316 µM; hits give low values
So basically: is viability, T/C under 0.3%? Then rule met. Not under? Then rule not met.

molecule="CCCS(=O)(=O)Nc1ccc(F)c(C(=O)c2c[nH]c3ncc(-c4ccc(Cl)cc4)cc23)c1F + CN1CCN(c2cc(C(=O)Nc3cc4cc(-c5cnn(C)c5)ccc4cn3)ccn2)CC1" measured_target="156681-154-R-J1-PDC complex spheroid viability" label_value="rule met"
molecule="CCc1c2c(nc3ccc(O)cc13)-c1cc3c(c(=O)n1C2)COC(=O)[C@]3(O)CC + CN1CCN(c2cc(C(=O)Nc3cc4cc(-c5cnn(C)c5)ccc4cn3)ccn2)CC1" measured_target="156681-154-R-J1-PDC complex spheroid viability" label_value="rule not met"
molecule="CC(Nc1ccc2c(c1)OCCn1cc(N3C(=O)OCC3C(F)F)nc1-2)C(N)=O (stereo unspecified) + CNC(=O)c1ccc(Nc2nc(OC3CCCC3)c3c(-c4ccc5nc(C)oc5c4)c[nH]c3n2)c(OC)c1" measured_target="156681-154-R-J1-PDC complex spheroid viability" label_value="rule not met"
molecule="O=c1[nH]cc(F)c(=O)[nH]1 + CN1CCN(c2cc(C(=O)Nc3cc4cc(-c5cnn(C)c5)ccc4cn3)ccn2)CC1" measured_target="156681-154-R-J1-PDC complex spheroid viability" label_value="rule met"
molecule="CC(=O)O[C@H]1C(=O)[C@@]2(C)[C@H]([C@H](OC(=O)c3ccccc3)[C@]3(O)C[C@H](OC(=O)[C@H](O)[C@@H](NC(=O)c4ccccc4)c4ccccc4)C(C)=C1C3(C)C)[C@]1(OC(C)=O)CO[C@@H]1C[C@@H]2O + CNC(=O)c1ccc(Nc2nc(OC3CCCC3)c3c(-c4ccc5nc(C)oc5c4)c[nH]c3n2)c(OC)c1" measured_target="156681-154-R-J1-PDC complex spheroid viability" label_value="rule not met"
molecule="CCN1CCN(Cc2ccc(Nc3ncc(F)c(-c4cc(F)c5nc(C)n(C(C)C)c5c4)n3)nc2)CC1 + CNC(=O)c1ccc(Nc2nc(OC3CCCC3)c3c(-c4ccc5nc(C)oc5c4)c[nH]c3n2)c(OC)c1" measured_target="156681-154-R-J1-PDC complex spheroid viability" label_value="rule not met"
molecule="CC(CO)NC(=O)c1cc(-c2ccc(Cl)cc2)nn(-c2cnn(C)c2)c1=O (stereo unspecified) + CN1CCN(c2cc(C(=O)Nc3cc4cc(-c5cnn(C)c5)ccc4cn3)ccn2)CC1" measured_target="156681-154-R-J1-PDC complex spheroid viability" label_value="rule not met"
molecule="CC1(C)CCC(CN2CCN(c3ccc(C(=O)NS(=O)(=O)c4ccc(NCC5CCOCC5)c([N+](=O)[O-])c4)c(Oc4cnc5[nH]ccc5c4)c3)CC2)=C(c2ccc(Cl)cc2)C1 + CNC(=O)c1ccc(Nc2nc(OC3CCCC3)c3c(-c4ccc5nc(C)oc5c4)c[nH]c3n2)c(OC)c1" measured_target="156681-154-R-J1-PDC complex spheroid viability" label_value="rule not met"
molecule="CC(=O)O[C@H]1C(=O)[C@@]2(C)[C@H]([C@H](OC(=O)c3ccccc3)[C@]3(O)C[C@H](OC(=O)[C@H](O)[C@@H](NC(=O)c4ccccc4)c4ccccc4)C(C)=C1C3(C)C)[C@]1(OC(C)=O)CO[C@@H]1C[C@@H]2O + CN1CCN(c2cc(C(=O)Nc3cc4cc(-c5cnn(C)c5)ccc4cn3)ccn2)CC1" measured_target="156681-154-R-J1-PDC complex spheroid viability" label_value="rule met"
molecule="O=C(c1cc(Cc2n[nH]c(=O)c3ccccc23)ccc1F)N1CCN(C(=O)C2CC2)CC1 + CN1CCN(c2cc(C(=O)Nc3cc4cc(-c5cnn(C)c5)ccc4cn3)ccn2)CC1" measured_target="156681-154-R-J1-PDC complex spheroid viability" label_value="rule met"
molecule="C#Cc1c(F)ccc2cc(O)cc(-c3ncc4c(N5CC6CCC(C5)N6)nc(OCC56CCCN5CC(F)C6)nc4c3F)c12 (stereo unspecified) + CNC(=O)c1ccc(Nc2nc(OC3CCCC3)c3c(-c4ccc5nc(C)oc5c4)c[nH]c3n2)c(OC)c1" measured_target="156681-154-R-J1-PDC complex spheroid viability" label_value="rule not met"
molecule="COc1c(OCCCN2CCOCC2)ccc2c3n(c(=NC(=O)c4cnc(N)nc4)nc12)CCN3 + CN1CCN(c2cc(C(=O)Nc3cc4cc(-c5cnn(C)c5)ccc4cn3)ccn2)CC1" measured_target="156681-154-R-J1-PDC complex spheroid viability" label_value="rule met"
molecule="C=CC(=O)N1CCN(c2nc(=O)n(-c3c(C)ccnc3C(C)C)c3nc(-c4c(O)cccc4F)c(F)cc23)C(C)C1 (stereo unspecified) + CNC(=O)c1ccc(Nc2nc(OC3CCCC3)c3c(-c4ccc5nc(C)oc5c4)c[nH]c3n2)c(OC)c1" measured_target="156681-154-R-J1-PDC complex spheroid viability" label_value="rule not met"
molecule="COc1ccc([C@@H](O)c2cc(-c3ncnc4cc(N5CCOCC5)ccc34)c(F)cc2Cl)nn1 + CNC(=O)c1ccc(Nc2nc(OC3CCCC3)c3c(-c4ccc5nc(C)oc5c4)c[nH]c3n2)c(OC)c1" measured_target="156681-154-R-J1-PDC complex spheroid viability" label_value="rule not met"
molecule="C=C(F)C(=O)N1CCN(c2nc(OCC3CCCN3C)nc3c2CCN(c2cccc4cccc(Cl)c24)C3)CC1CC#N (stereo unspecified) + CN1CCN(c2cc(C(=O)Nc3cc4cc(-c5cnn(C)c5)ccc4cn3)ccn2)CC1" measured_target="156681-154-R-J1-PDC complex spheroid viability" label_value="rule met"
molecule="COc1cccc2c1C(=O)c1c(O)c3c(c(O)c1C2=O)CC(O)(C(=O)CO)CC3OC1CC(N)C(O)C(C)O1 (stereo unspecified) + CNC(=O)c1ccc(Nc2nc(OC3CCCC3)c3c(-c4ccc5nc(C)oc5c4)c[nH]c3n2)c(OC)c1" measured_target="156681-154-R-J1-PDC complex spheroid viability" label_value="rule not met"

---

Tested on: 156681-154-R-J1-PDC complex spheroid viability
test: Anticancer human tumor 156681-154-R-J1-PDC cell line growth inhibition [CLK];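 further: spheroids exposed to the agents for seven days; 100% = DMSO vehicle control viability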
condition details: second compound 0.0316 µM; first compound 0.00316 µM; hits give low values
So basically: is viability, T/C under 90%? Then y. Not under? Then n.

compound="CCN1CCN(Cc2ccc(Nc3ncc(F)c(-c4cc(F)c5nc(C)n(C(C)C)c5c4)n3)nc2)CC1 + CNC(=O)c1ccc(Nc2nc(OC3CCCC3)c3c(-c4ccc5nc(C)oc5c4)c[nH]c3n2)c(OC)c1" label_value=n
compound="Cn1ncnc1[C@H]1c2n[nH]c(=O)c3cc(F)cc(c23)N[C@@H]1c1ccc(F)cc1 + CNC(=O)c1ccc(Nc2nc(OC3CCCC3)c3c(-c4ccc5nc(C)oc5c4)c[nH]c3n2)c(OC)c1" label_value=y
compound="COc1c(OCCCN2CCOCC2)ccc2c3n(c(=NC(=O)c4cnc(N)nc4)nc12)CCN3 + CNC(=O)c1ccc(Nc2nc(OC3CCCC3)c3c(-c4ccc5nc(C)oc5c4)c[nH]c3n2)c(OC)c1" label_value=y
compound="CCc1c2c(nc3ccc(O)cc13)-c1cc3c(c(=O)n1C2)COC(=O)[C@]3(O)CC + CNC(=O)c1ccc(Nc2nc(OC3CCCC3)c3c(-c4ccc5nc(C)oc5c4)c[nH]c3n2)c(OC)c1" label_value=y
compound="CCc1c2c(nc3ccc(O)cc13)-c1cc3c(c(=O)n1C2)COC(=O)[C@]3(O)CC + CN1CCN(c2cc(C(=O)Nc3cc4cc(-c5cnn(C)c5)ccc4cn3)ccn2)CC1" label_value=y
compound="CCN1CCN(Cc2ccc(Nc3ncc(F)c(-c4cc(F)c5nc(C)n(C(C)C)c5c4)n3)nc2)CC1 + CN1CCN(c2cc(C(=O)Nc3cc4cc(-c5cnn(C)c5)ccc4cn3)ccn2)CC1" label_value=n
compound="COc1c(OCCCN2CCOCC2)ccc2c3n(c(=NC(=O)c4cnc(N)nc4)nc12)CCN3 + CN1CCN(c2cc(C(=O)Nc3cc4cc(-c5cnn(C)c5)ccc4cn3)ccn2)CC1" label_value=y
